Data origin: patent US20220175777A1

Please respond with reported Maximum ATP binding mol SL-ANP bound/mol P-gp for every item in the list.
Test system: Cysteineless Mouse MDR3 P-glycoprotein (Mus musculus, UniProt P21447, C1070A/C1121A/C1223A/C133A/C427A/C638A/C669A/C713A/C952A)
Construct: made in house; host or cells: Pichia pastoris
Sequence (P21447 whole entry C133A/C427A/C638A/C669A/C713A/C952A/C1070A/C1121A/C1223A): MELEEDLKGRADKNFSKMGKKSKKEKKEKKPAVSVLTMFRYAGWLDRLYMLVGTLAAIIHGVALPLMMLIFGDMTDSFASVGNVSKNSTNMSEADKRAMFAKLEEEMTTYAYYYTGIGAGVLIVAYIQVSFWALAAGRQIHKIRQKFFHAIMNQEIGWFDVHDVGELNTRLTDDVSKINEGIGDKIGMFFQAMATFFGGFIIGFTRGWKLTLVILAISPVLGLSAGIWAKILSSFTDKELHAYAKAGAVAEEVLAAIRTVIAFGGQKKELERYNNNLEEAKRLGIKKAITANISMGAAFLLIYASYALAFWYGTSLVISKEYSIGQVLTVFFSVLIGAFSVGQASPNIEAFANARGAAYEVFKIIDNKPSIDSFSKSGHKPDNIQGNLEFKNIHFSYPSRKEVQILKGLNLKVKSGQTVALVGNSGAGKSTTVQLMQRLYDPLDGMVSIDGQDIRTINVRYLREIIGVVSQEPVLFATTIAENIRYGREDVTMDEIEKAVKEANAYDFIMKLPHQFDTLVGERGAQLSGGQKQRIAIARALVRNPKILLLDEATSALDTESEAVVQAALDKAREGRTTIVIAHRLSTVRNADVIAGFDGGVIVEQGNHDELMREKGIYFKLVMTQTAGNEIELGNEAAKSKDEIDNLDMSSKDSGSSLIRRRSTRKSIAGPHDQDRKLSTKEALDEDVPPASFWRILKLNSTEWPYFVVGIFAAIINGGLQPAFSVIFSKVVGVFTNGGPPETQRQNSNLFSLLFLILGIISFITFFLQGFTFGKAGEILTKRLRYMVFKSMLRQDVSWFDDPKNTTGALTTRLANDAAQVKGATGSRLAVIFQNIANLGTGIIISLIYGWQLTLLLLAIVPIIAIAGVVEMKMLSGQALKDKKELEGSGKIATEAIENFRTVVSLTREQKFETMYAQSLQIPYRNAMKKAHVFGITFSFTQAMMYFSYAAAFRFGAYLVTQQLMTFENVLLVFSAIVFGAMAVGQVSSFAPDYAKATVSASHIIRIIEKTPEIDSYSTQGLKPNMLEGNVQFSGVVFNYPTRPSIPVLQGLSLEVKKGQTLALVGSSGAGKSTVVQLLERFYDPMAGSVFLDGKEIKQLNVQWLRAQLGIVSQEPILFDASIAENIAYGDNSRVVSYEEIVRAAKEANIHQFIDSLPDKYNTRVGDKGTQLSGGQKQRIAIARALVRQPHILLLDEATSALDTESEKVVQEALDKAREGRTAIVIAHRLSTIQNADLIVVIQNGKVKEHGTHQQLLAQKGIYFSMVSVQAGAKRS
Test summary: SL-ATP binding to P-gp by ESR spectroscopy
Condition parameters: SL-ATP titration in presence of compound
Report the value in mol SL-ANP bound/mol P-gp with no unit label.

Data request, read-out Maximum ATP binding mol SL-ANP bound/mol P-gp, for `Cc1cc(C)c(-c2cc(NC(=O)CSCC(=O)c3ccc4c(c3)Cc3ccccc3-4)n(-c3ccccc3)n2)cc1C`
1.7

Let us now turn to `Cc1cc(C)c(-c2cc(NC(=O)CSCC(=O)Nc3ccc4ccccc4c3)n(-c3ccccc3)n2)cc1C`
1.6

Let us now turn to `Cc1cc(C)c(-c2cc(NC(=O)CSCC(=O)NC(c3ccccc3)c3ccccc3)n(-c3ccccc3)n2)cc1C`
1.6

Let us now turn to `Cc1cc(C)c(-c2cc(NC(=O)CSCC(=O)Nc3ccc4ncsc4c3)n(-c3ccccc3)n2)cc1C`
1.9

Let us now turn to `Cc1cc(C)c(-c2cc(NC(=O)CSCC(=O)N3c4ccccc4CCc4ccccc43)n(-c3ccccc3)n2)cc1C`
1.8

Let us now turn to `COc1cc(NC(=O)CSCC(=O)Nc2cc(-c3cc(C)c(C)cc3C)nn2-c2ccccc2)cc(OC)c1OC`
1.2

Let us now turn to `Cc1cc(C)c(-c2cc(NC(=O)CSc3cccc(NC(=O)c4cncc(Br)c4)c3)n(-c3ccccc3)n2)cc1C`
1.7

* * *

Please respond with reported Stimulated ATPase (% of DMSO) for every item in the list.
Test system: UniProt:P08183
Test summary: ATP hydrolysis by human P-gp assembled into membrane nanodiscs; also: test concentration or dose not given here
Type: biochemical
Condition parameters: human MDR1 P-gp in nanodiscs, stimulated

Data request, read-out Stimulated ATPase (% of DMSO), for Cc1cc(C)c(-c2cc(NC(=O)CSCC(=O)NCc3ccc(F)cc3)n(-c3ccccc3)n2)cc1C [SMU29-286]
59 ± 4 % of DMSO

Let us now turn to Cc1cc(C)c(-c2cc(NC(=O)CSc3cccc(NC(=O)c4cncc(Br)c4)c3)n(-c3ccccc3)n2)cc1C [SMU29-551]
27 ± 1 % of DMSO

Let us now turn to Cc1cc(C)c(-c2cc(NC(=O)CSCC(=O)Nc3ccc4ncsc4c3)n(-c3ccccc3)n2)cc1C [SMU29-255]
59 ± 6 % of DMSO

Let us now turn to COc1cc(NC(=O)CSCC(=O)Nc2cc(-c3cc(C)c(C)cc3C)nn2-c2ccccc2)cc(OC)c1OC [SMU29-238]
61 ± 7 % of DMSO

Let us now turn to Cc1cc(C)c(-c2cc(NC(=O)CSCC(=O)NC(c3ccccc3)c3ccccc3)n(-c3ccccc3)n2)cc1C [SMU29-280]
54 ± 7 % of DMSO

Let us now turn to Cc1cc(C)c(-c2cc(NC(=O)CSc3nnc4c(n3)[nH]c3ccccc34)n(-c3ccccc3)n2)cc1C [SMU29-541]
66 ± 6 % of DMSO

Let us now turn to Cc1cc(C)c(-c2cc(NC(=O)CSCC(=O)NC34CC5CC(CC(C5)C3)C4)n(-c3ccccc3)n2)cc1C [SMU29-278]
63 ± 6 % of DMSO

Let us now turn to Cc1cc(C)c(-c2cc(NC(=O)CSc3n[nH]c(C4CC4)n3)n(-c3ccccc3)n2)cc1C [SMU-29]
62 ± 3 % of DMSO

Let us now turn to Cc1cc(C)c(-c2cc(NC(=O)CSCC(=O)N3c4ccccc4CCc4ccccc43)n(-c3ccccc3)n2)cc1C [SMU29-227]
62 ± 5 % of DMSO

Let us now turn to Cc1cc(C)c(-c2cc(NC(=O)CSCC(=O)Nc3ccc4ccccc4c3)n(-c3ccccc3)n2)cc1C [SMU29-231]
40 ± 3 % of DMSO

Let us now turn to Cc1cc(C)c(-c2cc(NC(=O)CSCC(=O)c3ccc4c(c3)Cc3ccccc3-4)n(-c3ccccc3)n2)cc1C [SMU29-216]
64 ± 6 % of DMSO

* * *

Test system: Cysteineless Mouse MDR3 P-glycoprotein (Mus musculus, UniProt P21447, C1070A/C1121A/C1223A/C133A/C427A/C638A/C669A/C713A/C952A)
Construct: made in house; host or cells: Pichia pastoris
Test summary: ATP hydrolysis by purified P-glycoprotein, basal and verapamil-stimulated
Format: biochemical
Condition parameters: without added transport substrate; ± standard deviation
Assay readout: Basal ATPase (% of DMSO)

Data request, read-out Basal ATPase (% of DMSO), for Cc1cc(C)c(-c2cc(NC(=O)CSc3cccc(NC(=O)c4cncc(Br)c4)c3)n(-c3ccccc3)n2)cc1C [SMU29-551]
150 ± 6 % of DMSO

Let us now turn to COc1cc(NC(=O)CSCC(=O)Nc2cc(-c3cc(C)c(C)cc3C)nn2-c2ccccc2)cc(OC)c1OC [SMU29-238]
1143 ± 46 % of DMSO

Let us now turn to Cc1cc(C)c(-c2cc(NC(=O)CSCC(=O)Nc3ccc4ccccc4c3)n(-c3ccccc3)n2)cc1C [SMU29-231]
70 ± 0 % of DMSO

Let us now turn to Cc1cc(C)c(-c2cc(NC(=O)CSCC(=O)c3ccc4c(c3)Cc3ccccc3-4)n(-c3ccccc3)n2)cc1C [SMU29-216]
105 ± 7 % of DMSO

* * *

System: HFL1
Test summary: Intrinsic toxicity, MTT survival
Assay type: cell-based
Condition parameters: Homo sapiens, 48 hours, ± standard error
Please respond with reported IC50 for every item in the list.
Remember to quote the unit after the number.

Data request, read-out IC50, for CCC(C(=O)N1CCN(c2ccc(OC)cc2)CC1)n1nc(C)c2sc3ccccc3c2c1=O (centres unmarked) [SMU-34]
85.2 µM

Let us now turn to Cc1cc(C)c(-c2cc(NC(=O)CSc3n[nH]c(C4CC4)n3)n(-c3ccccc3)n2)cc1C [SMU-29]
48.2 µM

* * *

Test system: P-gp (Homo sapiens)
Sequence (P08183 whole entry): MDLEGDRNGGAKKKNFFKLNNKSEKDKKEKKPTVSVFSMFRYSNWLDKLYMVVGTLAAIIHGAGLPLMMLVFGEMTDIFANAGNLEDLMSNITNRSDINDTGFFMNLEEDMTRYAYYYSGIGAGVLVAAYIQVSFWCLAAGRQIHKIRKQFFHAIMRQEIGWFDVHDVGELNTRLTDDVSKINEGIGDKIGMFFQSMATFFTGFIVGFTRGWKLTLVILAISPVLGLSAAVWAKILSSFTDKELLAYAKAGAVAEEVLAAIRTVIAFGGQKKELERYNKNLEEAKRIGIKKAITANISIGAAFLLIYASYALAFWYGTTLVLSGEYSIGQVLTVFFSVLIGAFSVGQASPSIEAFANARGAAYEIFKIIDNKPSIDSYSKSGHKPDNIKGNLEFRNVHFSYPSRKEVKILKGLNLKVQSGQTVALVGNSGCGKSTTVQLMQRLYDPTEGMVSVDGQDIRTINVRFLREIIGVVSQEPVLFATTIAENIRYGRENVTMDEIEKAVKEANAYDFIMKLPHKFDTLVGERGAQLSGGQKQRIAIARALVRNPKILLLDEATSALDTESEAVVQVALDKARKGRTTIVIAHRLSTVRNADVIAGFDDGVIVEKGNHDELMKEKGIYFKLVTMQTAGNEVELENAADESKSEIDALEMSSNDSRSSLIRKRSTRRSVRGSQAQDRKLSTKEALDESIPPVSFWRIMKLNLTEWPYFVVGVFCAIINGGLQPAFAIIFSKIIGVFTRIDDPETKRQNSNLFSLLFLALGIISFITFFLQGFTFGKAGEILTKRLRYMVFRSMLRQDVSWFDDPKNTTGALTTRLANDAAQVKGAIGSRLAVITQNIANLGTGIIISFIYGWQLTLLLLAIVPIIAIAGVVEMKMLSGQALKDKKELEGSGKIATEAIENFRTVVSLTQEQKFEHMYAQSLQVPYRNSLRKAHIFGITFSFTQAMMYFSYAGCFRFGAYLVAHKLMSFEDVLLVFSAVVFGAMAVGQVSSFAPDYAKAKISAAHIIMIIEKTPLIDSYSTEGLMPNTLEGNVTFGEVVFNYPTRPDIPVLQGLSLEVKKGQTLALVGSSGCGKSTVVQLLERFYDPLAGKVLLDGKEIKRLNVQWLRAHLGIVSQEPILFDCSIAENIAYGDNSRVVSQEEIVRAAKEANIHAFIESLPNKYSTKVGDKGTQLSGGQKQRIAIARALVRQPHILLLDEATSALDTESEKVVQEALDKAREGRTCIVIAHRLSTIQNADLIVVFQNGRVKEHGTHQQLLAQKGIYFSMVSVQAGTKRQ
Condition parameters: not told
Experimental: Stimulation of basal ATPase by 29-variants was used as an indicator that a compound may be a P-gp transport substrate. […] Quantitative cellular accumulation of 29-variants was performed using LC-MS/MS and is presented as a ratio of the cellular amounts of 29-variants in the presence of P-gp inhibitor, tariquidar, divided by amounts accumulated in its absence. […]
Assay readout: Transport substrate for P-gp

>>> print(df.to_string())
                                   compound          test_system  result
0  Cc1cc(C)c(-c2cc(NC(=O)CSCC(=O)c3ccc4c(c3)Cc3ccccc3-4)n(-c3ccccc3)n2)cc1C [SMU29-216]  P-gp (Homo sapiens)      no

* * *

Test system: Cysteineless Mouse MDR3 P-glycoprotein (Mus musculus, UniProt P21447, C1070A/C1121A/C1223A/C133A/C427A/C638A/C669A/C713A/C952A)
Construct: made in house; host or cells: Pichia pastoris
Test summary: SL-ATP binding to P-gp by ESR spectroscopy
Condition parameters: SL-ATP titration in presence of compound
Please respond with reported Maximum ATP binding mol SL-ANP bound/mol P-gp for every item in the list.
Remember to quote the unit after the number.

Data request, read-out Maximum ATP binding mol SL-ANP bound/mol P-gp, for Cc1cc(C)c(-c2cc(NC(=O)CSCC(=O)NCc3ccc(F)cc3)n(-c3ccccc3)n2)cc1C [SMU29-286]
1.9 ± 0.1 mol SL-ANP bound/mol P-gp

Let us now turn to Cc1cc(C)c(-c2cc(NC(=O)CSc3nnc4c(n3)[nH]c3ccccc34)n(-c3ccccc3)n2)cc1C [SMU29-541]
1.8 ± 0.1 mol SL-ANP bound/mol P-gp

Let us now turn to Cc1cc(C)c(-c2cc(NC(=O)CSCC(=O)NC34CC5CC(CC(C5)C3)C4)n(-c3ccccc3)n2)cc1C [SMU29-278]
1.3 ± 0.1 mol SL-ANP bound/mol P-gp
